- System: SK-MEL-5 melanoma
- assay_comment: NCI-60 one-dose screen, 48 h (100 = growth as untreated, 0 = no growth, -100 = all killed)
- measurement_conditions: 10 µM unless noted
The panel holds about 83,000 compounds, 20% with a hit somewhere; the sample as a whole holds those more often.
metric_name: growth (%)
Give bare numbers, in %.

>>> recorded_value("Cc1ccc2c(c1)O/C(=C\\c1cccc(OCC(=O)c3ccccc3)c1)C2=O")
87.3

Quick request: growth for each listed item, please.
1. COc1ccc(-c2c(C)noc2-c2ccc(O)cc2O)cc1
2. COc1ccc(-c2c3c(nc4n[nH]c(-c5ccc(Cl)cc5)c24)-c2ccccc2C(=O)C3=O)cc1
3. O=C(/C=C\c1ccc2ccccc2n1)c1cc(Cl)ccc1O
4. O=C(O)c1cccc2c1-c1ccccc1C2=O
5. CCCCN(CCCC)Cc1c(C)[nH]c2cc(OC)ccc2c1=O
6. CC[C@H](Nc1nc(N)nc(C)c1C#N)c1nc2cccc(NCc3ccc(C(=O)NO)cc3)c2c(=O)n1-c1ccccc1
7. COc1ccc(C(=O)COc2ccc(/C=C3\Oc4ccc(Cl)cc4C3=O)cc2)cc1

Result block:
80.4
5.41
97
102
101
-13.2
78.8

Quick request: growth for each listed item, please.
1. CN1CCN(c2ccc3nc(-c4ccc5nc(-c6ccc(OCCC(C)(C)C)cc6)[nH]c5c4)[nH]c3c2)CC1
2. COc1ccc(-n2c(C)nc3c(c(C)nn3-c3ccccc3)c2=O)cc1
3. COc1cc(OC)c(/C=C/C(=O)c2c(OC)cc(OC)cc2OC)c(OC)c1
4. C=C1CCC2C3(C)COC(c4ccc(SC)cc4)OC3CCC2(C)C1C/C=C1/C(=O)OCC1O (stereo unspecified)

Result block:
[80.2, -17.1, 1.55, 65.3]

Quick request: growth for each listed item, please.
1. NC(=S)N/N=C/c1cc(-c2cccc(N)c2)ccn1
2. CCOC(=O)N1CCN(c2nc(Nc3cc(C)[nH]n3)c3ccccc3n2)CC1
3. CCCCNP1(NCCCC)=NP(NCCCC)(NCCCC)=NP(NCCCC)(NCCCC)=NP(NCCCC)(NCCCC)=N1
4. C=CCSc1nnc(-c2ccc(C(C)(C)C)cc2)n1-c1cccc(C(F)(F)F)c1

Result block:
1: 8.97; 2: 57.9; 3: -93.8; 4: 37.4

Quick request: growth for each listed item, please.
1. COc1ccc(C(=O)/C=C/c2cc3ccccc3[nH]c2=O)cc1
2. CCN(CC)CC(O)CNc1c2ccc([N+](=O)[O-])cc2nc2cc(OC)c(OC)cc12 (stereo unspecified)
3. COc1ccc(/C=c2/c(=O)[nH]c3nc4sc(C)c(C)c4c(=O)n23)cc1
4. CC(C)n1cc2c(N)ncnc2n1

Result block:
[72.5, -78.3, 90.8, 108]
